measured.target: Cellular tumor antigen p53 (Homo sapiens)
procedure.text: TOX21_p53_BLA_p3_ratio: Tox21 HCT-116 p53 Agonism Beta-lactamase Assay, Ratio, Phase 3 (AID 2283596)
Inconclusive results are not listed. Calls of active or inactive are those of the source. How the source made its calls: active means hit-call score of the fitted dose curve at least 0.9, where 1 is the maximum; inconclusive means response in the unintended direction; inactive means score below 0.9.
Output constraint: value belongs to active, inactive

Before answering, review these 5 worked examples.
CCCCC(C#N)(Cn1cncn1)c1ccc(Cl)cc1 (stereo not drawn)    inactive
CNC(=O)Oc1cccc2ccccc12    inactive
CCOc1nc(F)cc2nc(S(=O)(=O)Nc3c(Cl)cccc3Cl)nn12    inactive
CS(=O)(=O)c1ccc(C(=O)C2C(=O)CCCC2=O)c([N+](=O)[O-])c1    inactive
COCC(=O)N(c1c(C)cccc1C)C(C)C(=O)OC (stereo not drawn)    inactive

Task item: Could you kindly confirm the outcome this assay logged for `Cc1c(COC(=O)[C@@H]2[C@H](/C=C(\Cl)C(F)(F)F)C2(C)C)cccc1-c1ccccc1` ?
Reply: inactive

Task item: Also `CC1(C)CON(Cc2ccccc2Cl)C1=O` , if possible.
Reply: inactive

Task item: Here is the next compound: `N#CN=C1SCCN1Cc1ccc(Cl)nc1`
Reply: inactive
